Cited source: patent US20050137220A1

target: MK-2 (Homo sapiens, UniProt P49137); assay: Determination of MK-2 IC50 (phosphorylation of HSP-peptide, anion exchange resin capture assay); assay type: biochemical; settings: additional values are replicate IC50 experiments; mixture of stereoisomers implied unless otherwise noted; read-out: MK-2 Avg. IC50
Sequence (P49137 whole entry, species assumed): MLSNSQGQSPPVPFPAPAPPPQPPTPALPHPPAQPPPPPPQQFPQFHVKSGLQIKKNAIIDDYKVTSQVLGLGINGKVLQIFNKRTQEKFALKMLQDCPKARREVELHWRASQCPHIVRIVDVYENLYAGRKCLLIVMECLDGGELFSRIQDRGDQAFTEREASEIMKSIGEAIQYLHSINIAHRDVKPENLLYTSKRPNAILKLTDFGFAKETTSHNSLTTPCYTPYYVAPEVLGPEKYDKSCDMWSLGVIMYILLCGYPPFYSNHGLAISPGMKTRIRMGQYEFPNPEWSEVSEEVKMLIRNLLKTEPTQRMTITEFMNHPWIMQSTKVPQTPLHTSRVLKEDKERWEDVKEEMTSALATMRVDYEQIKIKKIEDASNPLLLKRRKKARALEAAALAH
pIC50: −log10 of the molar value. Counter-ions that a name gives are not always drawn.
Readout: pIC50

Reference set, count: 8
> print(dat)
                                   molecule  value.reported
1          O=C(O)c1ccc2[nH]c3c(c2c1)CCNC3=O          < 3.70
2  O=C(O)C1NCCc2c1[nH]c1ccc(OCCCCCl)cc21 (stereo not drawn) [Example 79, hydrochloride]            4.76
3  COc1ccc([N+](=O)[O-])c2c3c(n(C)c12)C(=O)NCC3          < 3.70
4  O=C(O)C1NCCc2c1[nH]c1ccc(OCC3CCCCC3)cc21 (stereo not drawn)          < 3.70
5  CCOC(=O)C1Cc2c([nH]c3ccc(OC)cc23)C(C(=O)O)N1 (stereo not drawn)          < 3.70
6            COc1ccc2c3c([nH]c2c1)C(=O)NCC3          < 3.70
7  COC(=O)C1c2[nH]c3ccc(OCc4ccccc4)cc3c2CCN1C (stereo not drawn)          < 3.70
8  COc1ccc2[nH]c3c(c2c1)CCN(C(C)C)C3C(=O)O (stereo not drawn)            3.77

Now for a further molecule.
In: Request body: readout pIC50, system MK-2 (Homo sapiens, UniProt P49137), query O=C(O)C1NCCc2c1[nH]c1ccc(OCc3ccncc3)cc21 (stereo not drawn) [Example 85, hydrochloride] . Return the value.
Out: 4.59

---

We begin with a simple list: items and their reported log10 of IC50.
molecular target: UniProtKB P49137; experiment: Determination of MK-2 IC50 (phosphorylation of HSP-peptide, anion exchange resin capture assay); type: biochemical; details: additional values are replicate IC50 experiments; mixture of stereoisomers implied unless otherwise noted; read-out: MK-2 Avg. IC50
Counter-ions that a name gives are not always drawn.
Scale: decimal log of IC50, IC50 in µM.

Example results:
> print(dat)
                                   molecule  value.reported
1               O=C1NCCc2c1[nH]c1ccc(O)cc21            1.69
2  COc1ccc2[nH]c3c(c2c1)CC(CCCNCCCc1ccccc1)NC3=O (stereo not drawn) [Example 27, trifluoroacetate]            0.51
3  COc1ccc2[nH]c3c(c2c1)CCCNC3=O [Example 30, hydrochloride]            0.56
4  O=C(O)C1NCCc2c1[nH]c1ccc(OCc3ccc(Cl)cc3)cc21 (stereo not drawn)            2.05
5  COC(=O)c1cccc(COc2ccc3[nH]c4c(c3c2)CCNC4C(=O)O)c1 (stereo not drawn) [Example 159, hydrochloride]            2.26
6           COc1ccc2[nH]c3c(=O)[nH]ccc3c2c1            1.50

In: Quick one: log10 of IC50 of O=C(O)C1NCCc2c1[nH]c1ccc(OCc3ccc(C(F)(F)F)cc3)cc21 (stereo not drawn) [Example 138, hydrochloride hydrate] ?
Out: 2.06

In: Query (molecule): CN(C)C(=O)COc1ccc2[nH]c3c(c2c1)CCNC3C(=O)O (stereo not drawn) [Example 86, hydrochloride] ; field requested: log10 of IC50
Out: 1.44

---

Measured IC50 values are reported for all entries that follow.
target: MK-2 (Homo sapiens); experiment: Determination of MK-2 IC50 (phosphorylation of HSP-peptide, anion exchange resin capture assay); type: biochemical; conditions: additional values are replicate IC50 experiments; mixture of stereoisomers implied unless otherwise noted; read-out: MK-2 Avg. IC50
Counter-ions that a name gives are not always drawn.
Quick reminder: number only, in µM, skip the unit.

> print(dat)
                           compound      target.of.assay  readout  value.reported
1  COc1ccc2[nH]c3c(c2c1)CCNS3(=O)=O  MK-2 (Homo sapiens)     IC50             155

Now examine the next entry.
In: Consider the compound O=C(O)C1NCCc2c1[nH]c1ccc(OCc3ccc4ccccc4c3)cc21 (centres unmarked) [Example 127, hydrochloride] and give its measured IC50.
Out: 91.3

---

target: UniProtKB P49137; experiment: Determination of MK-2 IC50 (phosphorylation of HSP-peptide, anion exchange resin capture assay); assay type: biochemical; conditions: additional values are replicate IC50 experiments; mixture of stereoisomers implied unless otherwise noted; read-out: MK-2 Avg. IC50
Counter-ions that a name gives are not always drawn.
Readout: IC50

> print(dat)
                                   molecule  readout  value.reported
1  COc1ccc2[nH]c3c(c2c1)C1(CCCCC1)CNC3C(=O)O (stereo not drawn)     IC50        > 200 µM

In: What IC50 value was documented for this molecule, COc1ccc2[nH]c3c(c2c1)CCC/C3=N/O ?
Out: 3.1 µM

In: Given O=C(O)C1NCCc2c1[nH]c1ccc(OCc3ccccc3Cl)cc21 (stereo not drawn) [Example 196, hydrochloride] , state its recorded IC50.
Out: > 200 µM

---

target: UniProt P49137; assay: Determination of MK-2 IC50 (phosphorylation of HSP-peptide, anion exchange resin capture assay); type: biochemical; conditions: additional values are replicate IC50 experiments; mixture of stereoisomers implied unless otherwise noted; read-out: MK-2 Avg. IC50
Counter-ions that a name gives are not always drawn.
Readout: IC50

> print(dat)
                                   compound  target.of.assay  readout  value.reported
1  COc1ccc2[nH]c3c(c2c1)CC(C)(C)NC3C(=O)O (stereo not drawn) [Example 54]   UniProt P49137     IC50         8.39 µM
2  COc1ccc2[nH]c3c(c2c1)CCNC3(CCCC(=O)O)C(=O)O (stereo not drawn) [Example 179]   UniProt P49137     IC50        > 200 µM
3  O=C1NCCc2c1[nH]c1cccc(C(=O)O)c21 [Example 250]   UniProt P49137     IC50        > 200 µM
4  COc1ccc2[nH]c3c(c2c1)CCC(C)/C3=N/O (stereo not drawn) [Example 78]   UniProt P49137     IC50           17 µM
5  COc1ccc2[nH]c3c(c2c1)C(Cc1ccc(CO)cc1)CNC3C(=O)O (stereo not drawn) [Example 114]   UniProt P49137     IC50         61.4 µM

In: Tell me the measured IC50 of COc1ccc2[nH]c3c(c2c1)C(Cc1ccco1)CNC3C(=O)O (stereo not drawn) [Example 222, trifluoroacetate] , please.
Out: > 200 µM

---

molecular target: UniProt:P49137; assay: Determination of MK-2 IC50 (phosphorylation of HSP-peptide, anion exchange resin capture assay); type: biochemical; conditions: additional values are replicate IC50 experiments; mixture of stereoisomers implied unless otherwise noted; read-out: MK-2 Avg. IC50
Where a name gives a salt, the structure may show the parent alone.
Recorded IC50, one value per entry.

Reference set (5 entries):
> print(dat)
                                   molecule  readout  value.reported
1  Cc1ccc2[nH]c3c(c2c1)CCNC3=O [Example 254]     IC50        > 200 µM
2  COc1cccc2c3c([nH]c12)C(C(=O)O)NCC3 (centres unmarked) [Example 223, trifluoroacetate hydrate]     IC50        > 200 µM
3  COC(=O)C1Cc2c([nH]c3ccccc23)C(C(=O)O)N1 (centres unmarked) [Example 227]     IC50        > 200 µM
4  COc1ccc2[nH]c3c(=O)n(N)c(=O)[nH]c3c2c1 [Example 266]     IC50        > 200 µM
5  COC(=O)c1ccc2[nH]c3c(c2c1)CCNC3=O [Example 270]     IC50        > 200 µM

In: I'd like to know its IC50. The molecule in question is O=C1NCCc2c1[nH]c1ccc([N+](=O)[O-])cc21 [Example 253]
Out: > 200 µM

In: GET /values?readout=IC50&item= CCn1c2c(c3cc(OC)ccc31)CCNC2C(=O)OC (centres unmarked) [Example 208, trifluoroacetate]
Out: > 200 µM

In: Fill blank: measured IC50 of the molecule COc1ccc2[nH]c3c(c2c1)C(c1ccccc1)CNC3C(=O)O (centres unmarked) [Example 210, hydrochloride] is ____.
Out: > 200 µM

In: What value of IC50 has been reported for the following molecule? COc1ccc2[nH]c3c(c2c1)CCNC3CC(=O)O (centres unmarked) [Example 165, hydrochloride]
Out: > 200 µM

In: Query: IC50; subject: COc1ccc2[nH]c3c(c2c1)CC(C(F)(F)F)NC3C(=O)O (centres unmarked) [Example 205]
Out: > 200 µM

In: Entry Cc1cccc2c3c([nH]c12)C(=O)NCC3 [Example 258] : reported IC50 = ?
Out: > 200 µM

In: // query IC50 value for entry COC(=O)C1c2[nH]c3ccc(OC)cc3c2CCN1CCNC(=O)OC(C)(C)C (centres unmarked) [Example 195]
Out: > 200 µM

In: Fill blank: measured IC50 of the molecule COC(=O)C1(CCl)NCCc2c1[nH]c1ccccc21 (centres unmarked) [Example 164] is ____.
Out: > 200 µM

In: Would you mind telling me what IC50 value was observed for COC(=O)C1c2[nH]c3ccc(OC)cc3c2CCN1C(C)=O (centres unmarked) [Example 232] ?
Out: > 200 µM

In: Please look up its IC50: COc1ccc2[nH]c3c(c2c1)CCC3=NO [Example 132]
Out: 104 µM
